- SYSTEM_UNDER_TEST: Ba/F3 Pro B-cell line expressing BCR-human AXL kinase domain fusion protein (Homo sapiens)
- Construct: P11274 (Breakpoint cluster region protein)
- EXPERIMENT_NOTES: Assay 5 Ba/F3 cell survival assay, BCR-Axl
- CONDITION_CONTEXT: read-out: BCR-Axl Ba/F3 IC50, 48 h, CellTiter-Glo
# maps each entry to its IC50
PROPERTY_LABEL: IC50 (nM)

[
  {
    "COMPOUND": "CC(C)n1cc(C(=O)Nc2ccc(Oc3ccnc4cnc(N5CCN(C6COC6)CC5)cc34)cn2)c(=O)c(-c2ccc(F)cc2)c1 [Example 20.2]",
    "PROPERTY_LABEL": "IC50",
    "RECORDED_NUMBER": 2
  },
  {
    "COMPOUND": "O=C(Nc1ccc(Oc2ccnc3cnc(C4CCNC4)cc23)cn1)c1cccn(-c2ccc(F)cc2)c1=O (stereo not shown) [Example 21]",
    "PROPERTY_LABEL": "IC50",
    "RECORDED_NUMBER": 203
  },
  {
    "COMPOUND": "CN1CCC(NC(=O)c2cc3c(Oc4ccc(NC(=O)c5cn(C6CC6)c(=O)n(-c6ccc(F)cc6)c5=O)cc4)ccnc3cn2)CC1 [Example 15]",
    "PROPERTY_LABEL": "IC50",
    "RECORDED_NUMBER": 14
  },
  {
    "COMPOUND": "CC(C)n1cc(C(=O)Nc2ccc(Oc3ccnc4cnc(C(=O)NC5CCN(C)CC5)cc34)cc2)c(=O)n(-c2ccc(F)cc2)c1=O [Example 8.2]",
    "PROPERTY_LABEL": "IC50",
    "RECORDED_NUMBER": 3
  },
  {
    "COMPOUND": "CN1CCC(NC(=O)c2cc3c(Oc4ccc(NC(=O)c5cn(C)cc(-c6ccc(F)cc6)c5=O)cc4)ccnc3cn2)CC1 [Example 37]",
    "PROPERTY_LABEL": "IC50",
    "RECORDED_NUMBER": 17
  },
  {
    "COMPOUND": "Cc1cc(NC(=O)c2cccn(-c3ccccc3)c2=O)ccc1Oc1ccnc2cnc(N3CCNCC3)cc12 [Example 30]",
    "PROPERTY_LABEL": "IC50",
    "RECORDED_NUMBER": 470
  },
  {
    "COMPOUND": "CN1CCC(NC(=O)c2cc3c(Oc4ccc(NC(=O)c5cccn(-c6ccc(F)cc6)c5=O)nc4)ccnc3cn2)CC1 [Example 11]",
    "PROPERTY_LABEL": "IC50",
    "RECORDED_NUMBER": 32
  }
]

###

- SYSTEM_UNDER_TEST: recombinant human MERTK expressed in live cells (HEK 293, MERTK-Nanoluc fusion vector) (Homo sapiens)
- Construct: host or cells: HEK 293
- EXPERIMENT_NOTES: Assay 2 MERTK cellular target engagement (NanoBRET TE) assay
- Assay type: cell-based
- CONDITION_CONTEXT: HEK 293 cells, tracer K9, 2 h at 37° C.; read-out: Assay 2 Cell TE MER IC50

[
  {
    "SMI": "O=C(Nc1ccc(Oc2ccnc3cnc(N4CCNCC4)cc23)cc1)c1cn(C2CC2)c(=O)n(-c2ccc(F)cc2)c1=O",
    "RESULT_UNIT": "µM",
    "IC50": 0.0681
  },
  {
    "SMI": "NC(=O)c1cc2c(Nc3ccc(NC(=O)c4cccn(-c5ccccc5)c4=O)cc3)ccnc2cn1",
    "RESULT_UNIT": "µM",
    "IC50": 0.174
  },
  {
    "SMI": "CNC(=O)c1cc2c(Nc3ccc(NC(=O)c4cccn(-c5ccccc5)c4=O)cc3)ccnc2cn1",
    "RESULT_UNIT": "µM",
    "IC50": 0.0419
  },
  {
    "SMI": "O=C(Nc1ccc(Nc2ccnc3cnc(N4CCNCC4)cc23)cc1)c1cccn(-c2ccccc2)c1=O",
    "RESULT_UNIT": "µM",
    "IC50": 0.175
  },
  {
    "SMI": "CN1CCC(NC(=O)c2cc3c(Nc4ccc(NC(=O)c5cccn(-c6ccccc6)c5=O)cc4)ccnc3cn2)CC1",
    "RESULT_UNIT": "µM",
    "IC50": 0.0263
  },
  {
    "SMI": "O=C(Nc1ccc(Oc2ccnc3cnc(N4CCNCC4)cc23)c(F)c1)c1cccn(-c2ccccc2)c1=O",
    "RESULT_UNIT": "µM",
    "IC50": 0.0261
  },
  {
    "SMI": "Cn1cc(C(=O)Nc2ccc(Oc3ccnc4cnc(N5CCNCC5)cc34)cc2)c(=O)c(-c2ccc(F)cc2)c1",
    "RESULT_UNIT": "µM",
    "IC50": 0.0124
  }
]

###

- SYSTEM_UNDER_TEST: Ba/F3 Pro B-cell line expressing BCR-human AXL kinase domain fusion protein (Homo sapiens, UniProt P30530)
- Construct: P11274 (Breakpoint cluster region protein)
- Sequence (P30530 536-807 limits assumed): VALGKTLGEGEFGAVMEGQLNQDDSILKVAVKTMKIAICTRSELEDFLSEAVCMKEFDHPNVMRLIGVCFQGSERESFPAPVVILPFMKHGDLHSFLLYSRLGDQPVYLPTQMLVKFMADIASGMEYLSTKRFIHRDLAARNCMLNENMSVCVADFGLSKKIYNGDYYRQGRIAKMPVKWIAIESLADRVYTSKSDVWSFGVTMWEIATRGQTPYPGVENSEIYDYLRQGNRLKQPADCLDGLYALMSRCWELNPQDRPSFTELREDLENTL
- EXPERIMENT_NOTES: Assay 5 Ba/F3 cell survival assay, BCR-Axl
- CONDITION_CONTEXT: read-out: BCR-Axl Ba/F3 IC50, 48 h, CellTiter-Glo
pIC50: −log10 of the molar value.
Use Satisfied when the recorded pIC50 is no lower than 8; use Not satisfied when it is lower.

[
  {
    "SMI": "CC(C)n1cc(C(=O)Nc2ccc(Oc3ccnc4cnc(C(=O)NC5CCN(C)CC5)cc34)cn2)c(=O)n(-c2ccc(F)cc2)c1=O",
    "CLASSIFICATION": "Satisfied"
  },
  {
    "SMI": "CN1CCC(NC(=O)c2cc3c(Oc4ccc(NC(=O)c5cccn(-c6ccccc6)c5=O)cc4F)ccnc3cn2)CC1",
    "CLASSIFICATION": "Not satisfied"
  },
  {
    "SMI": "O=C(Nc1ccc(Oc2ccnc3cnc(N4CCNCC4)cc23)cc1)c1cccn(-c2ccc(F)cc2)c1=O",
    "CLASSIFICATION": "Not satisfied"
  }
]

###

# maps each entry to its pIC50
- SYSTEM_UNDER_TEST: Ba/F3 Pro B-cell line expressing TEL-human MERTK fusion domain (Homo sapiens, UniProt Q12866)
- Sequence (Q12866 587-858 limits assumed): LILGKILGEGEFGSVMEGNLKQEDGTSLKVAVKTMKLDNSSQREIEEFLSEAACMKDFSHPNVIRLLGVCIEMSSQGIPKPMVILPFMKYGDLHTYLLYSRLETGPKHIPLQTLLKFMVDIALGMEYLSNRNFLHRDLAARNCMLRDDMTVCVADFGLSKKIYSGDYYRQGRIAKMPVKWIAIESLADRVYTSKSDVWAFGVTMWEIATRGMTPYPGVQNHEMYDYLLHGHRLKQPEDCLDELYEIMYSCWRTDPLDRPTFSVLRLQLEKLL
- Assay type: cell-based
- CONDITION_CONTEXT: cell survival, 48 h, CellTiter-Glo; read-out: TEL-MERTK Ba/F3 IC50
pIC50: −log10 of the molar value.

[
  {
    "COMPOUND": "CC(C)n1cc(C(=O)Nc2ccc(Oc3ccnc4cnc(N5CCN(C6COC6)CC5)cc34)cn2)c(=O)c(-c2ccc(F)cc2)c1 [Example 20.2]",
    "pIC50": 8.30
  },
  {
    "COMPOUND": "CC(C)n1cc(C(=O)Nc2ccc(Oc3ccnc4cnc(C(=O)NC5CCN(C(=O)OC(C)(C)C)CC5)cc34)cn2)c(=O)n(-c2ccc(F)cc2)c1=O [Example 27.1]",
    "pIC50": 7.17
  },
  {
    "COMPOUND": "CC(C)n1cc(C(=O)Nc2ccc(Oc3ccnc4cnc(C(=O)NC5CCN(C)CC5)cc34)cn2)c(=O)n(-c2ccc(F)cc2)c1=O [Example 27.5]",
    "pIC50": 8.05
  },
  {
    "COMPOUND": "CN1CCC(NC(=O)c2cc3c(Oc4ccc(NC(=O)c5cn(C6CC6)c(=O)n(-c6ccc(F)cc6)c5=O)cc4)ccnc3cn2)CC1 [Example 15]",
    "pIC50": 6.80
  },
  {
    "COMPOUND": "Cn1cc(C(=O)Nc2ccc(Oc3ccnc4cnc(N5CCNCC5)cc34)cc2)c(=O)c(-c2ccc(F)cc2)c1 [Example 13.1]",
    "pIC50": 7.30
  },
  {
    "COMPOUND": "CN1CCC(NC(=O)c2cc3c(Oc4ccc(NC(=O)c5cccn(-c6ccc(F)cc6)c5=O)cc4)ccnc3cn2)CC1 [Example 8.1]",
    "pIC50": 7.77
  }
]

Hello, the source for this data is patent US20230203029A1, in case you need it.
